Overview of recorded protein stability index for various variants
B1: MYL5 (parent)
chain: DVAGNLDYKALSYVITHGEEKEE

Variants of: B1
measurement protocol: protein stability index of a GFP-peptide fusion (GPS, HEK-293T) (PSI 1-6); higher = more stable;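 also: lentivirally expressed fusions sorted by FACS into six bins by GFP to DsRed ratio, PSI derived from sequencing read proportions per bin multiplied by bin number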
experimental conditions: c terminus: native

variant descriptor | protein stability index
K21G | 3.52
T16W | 2.48
E19F | 3.04
H17G | 2.4
S12K | 2.3
D7Q | 1.64
D7A | 1.89
H17C | 1.67
E19K | 3.27
A3V | 1.97
K9M | 1.6
I15P | 2.16
V2A | 1.64
H17Q | 1.96
G18S | 1.49
E20Y | 2.61
V2N | 1.75
H17K | 1.79
H17A | 1.39
N5W | 1.83
S12E | 2.13
E23D | 4.94
T16V | 2.35
D1A | 2.07
A10L | 1.97
V14G | 2.28
G4E | 2.63
D1M | 1.65
A10R | 1.74
K21A | 2.46
V14M | 1.24
S12I | 2.45
Y8A | 2.1
G4R | 2.5
G4L | 2.03
Y13F | 1.8
E22A | 4.23
K21W | 1.95
N5I | 2.54
I15N | 2.63
A10W | 4.9
V14S | 2.31
K21P | 1.72
L11P | 2.45
Y13P | 3.39
H17S | 3.05
L6P | 2.01
V2F | 1.19
E20P | 1.3
N5H | 1.92
L6W | 1.72
